Experiment: Cytotoxicity against mouse EMT6/AR1 cells
Assay type: functional, cell-based
Reported metric: IC50 (nM)
Give a bare numeral; the unit nM is implied.

// IC50 lookup, compound = "COc1cc(C(=O)c2[nH]c(N)nc2-c2cccs2)cc(OC)c1OC" , result: 2430

###

Parameter IC50: see the listing below.
System: HCT-116
Experiment: Cytotoxicity against human HCT-116 cells after 24 hrs by MTT assay
Assay type: functional, cell-based
Settings: HCT-116, 24 h

Short answer for CC(=O)O[C@@]12CO[C@@H]1C[C@H](O)[C@@]1(C)C(=O)[C@H](O)C3=C(C)[C@@H](OC(=O)[C@H](O)[C@@H](NC(=O)OC(C)(C)C)c4ccccc4)C[C@@](O)([C@@H](OC(=O)c4ccccc4)[C@H]21)C3(C)C [DOCETAXEL ANHYDROUS] : IC50 was 14 µM

The reported IC50 of the molecule "COc1ccc(-c2c[nH]c(=S)n2/N=C/c2ccccc2O)cc1" was 3.99 µM
